Molecular target: UniProtKB O15427
Assay: Lactate transport in MCT4-expressing MDA-MB-453 breast cancer cells (BCECF)
Type: cell-based
Details: MDA-MB-453 cells stably expressing MCT4; 50 mM L-lactate
MEASURE_NAME: IC50 (nM)

1. CC(C)(OCc1cc(-c2ccc(Cl)cc2)n(Cc2ccc(Cl)cc2Cl)n1)C(=O)O [Example 5] :: 160
2. Cc1cccc(-c2cc(COC(C)(C)C(=O)O)nn2Cc2ccccc2Cl)c1 [Example 11] :: 45

a. CC(C)(OCc1cc(-c2ccc(Cl)cc2)n(Cc2ccccc2)n1)C(=O)O [Example 7]
b. CC(C)(OCc1cc(-c2ccc(Cl)cc2)n(Cc2ccc(Cl)cc2)n1)C(=O)O [Example 2]
c. CC(C)(OCc1cc(-c2cccc(F)c2)n(Cc2ccccc2Cl)n1)C(=O)O [Example 12]
d. CC(C)(OCc1cc(-c2ccc(Cl)cc2)n(Cc2cccnc2)n1)C(=O)O [Example 23]
e. CC(C)(OCc1cc(-c2ccc(F)cc2)n(Cc2ccccc2Cl)n1)C(=O)O [Example 4]
rank_up(items): orders items by reported IC50 in ascending numerical order. Please list each label once, in the requested order.
c, e, b, a, d

----------
Test: Metabolic stability in mouse liver microsomes
Assay type: in vitro ADME
Details: mouse liver microsomes 0.5 mg/mL, 2 μM compound; remaining percentage of parent at 60 min
MEASURE_NAME: Mouse microsome % 60 min (%)

1. COc1cccc(-c2cc(COC(C)(C)C(=O)O)nn2Cc2ccccc2Cl)c1 :: 95
2. COc1cccc(-c2cc(COC(C)(C)C(=O)O)nn2Cc2ccccc2OC)c1 :: 99
3. COc1cccc(-c2cc(COC(C)(C)C(=O)O)nn2Cc2ccccc2N(C)C)c1 :: 61
4. COc1ccc(-c2cc(COC(C)(C)C(=O)O)nn2Cc2ccccc2Cl)s1 :: 84

----------
Target: MCT4 (Homo sapiens (Human))
Sequence (O15427 whole entry, looked up): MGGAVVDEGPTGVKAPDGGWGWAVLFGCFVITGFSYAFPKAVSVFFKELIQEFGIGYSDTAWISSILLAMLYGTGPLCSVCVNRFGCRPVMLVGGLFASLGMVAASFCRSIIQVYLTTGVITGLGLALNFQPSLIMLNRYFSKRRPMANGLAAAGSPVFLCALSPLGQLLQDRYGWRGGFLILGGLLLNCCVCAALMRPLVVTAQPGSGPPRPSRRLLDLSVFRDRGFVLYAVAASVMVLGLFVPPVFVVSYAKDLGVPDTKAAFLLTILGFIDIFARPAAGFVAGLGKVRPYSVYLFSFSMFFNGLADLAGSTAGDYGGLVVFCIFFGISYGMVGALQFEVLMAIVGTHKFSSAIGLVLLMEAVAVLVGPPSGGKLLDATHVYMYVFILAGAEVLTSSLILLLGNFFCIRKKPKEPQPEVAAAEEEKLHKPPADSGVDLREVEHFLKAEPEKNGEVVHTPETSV
Sequence (P35613 whole entry partner, looked up): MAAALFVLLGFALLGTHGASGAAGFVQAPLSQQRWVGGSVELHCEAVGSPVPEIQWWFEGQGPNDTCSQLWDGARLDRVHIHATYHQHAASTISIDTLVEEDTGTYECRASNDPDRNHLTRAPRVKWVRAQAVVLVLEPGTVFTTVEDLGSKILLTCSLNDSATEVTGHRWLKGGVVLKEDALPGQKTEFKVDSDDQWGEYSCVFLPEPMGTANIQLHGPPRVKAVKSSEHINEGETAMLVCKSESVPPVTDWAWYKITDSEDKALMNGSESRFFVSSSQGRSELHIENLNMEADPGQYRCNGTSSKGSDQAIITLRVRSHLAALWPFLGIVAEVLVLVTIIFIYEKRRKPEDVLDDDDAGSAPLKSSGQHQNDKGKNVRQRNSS
Assay: MCT4-mediated lactate transport in MDA-MB-231 breast cancer cells
Assay type: cell-based
Conditions: MDA-MB-231 cells, native MCT4; 50 mM L-lactate
MEASURE_NAME: IC50 (nM)

1) CC(C)COc1cccc(-c2cc(COC(C)(C)C(=O)O)nn2Cc2ccccc2F)c1 [Example 26] :: 9.4

A. CC(C)(OCc1cc(-c2cccc(OCC(F)(F)F)c2)n(Cc2ccccc2Cl)n1)C(=O)O [Example 43]
B. CC(C)(OCc1cc(-c2ccsc2)n(Cc2ccccc2Cl)n1)C(=O)O [Example 24]
Lab note: record which item had the higher IC50, A or B . Answer format: the label of the selected item.
B

----------
Form field: IC50 (one value per entry).
Target: MCT1 (Homo sapiens (Human))
Test: MCT1-mediated lactate transport in BT20 breast cancer cells
Type: cell-based
Settings: native MCT1, 10 mM L-lactate, Table 3

Consider the following illustrative entries.
1) CC(C)(OCc1cc(Nc2ccccc2)n(Cc2ccccc2Cl)n1)C(=O)O [Example 75] :: > 100000 nM
2) CC(C)(OCc1cc(-c2cccc(OCC3CC3)c2)n(Cc2ccccc2Cl)n1)C(=O)O [Example 33] :: 9100 nM

Now, please, on to the next compound.
Consider the compound CC(C)(OCc1cc(-c2cccc(CN3CCOCC3)c2)n(Cc2ccccc2Cl)n1)C(=O)O [Example 40] and give its measured IC50.
> 100000 nM

----------
Assay: Metabolic stability in human liver microsomes
Assay type: in vitro ADME
Details: human liver microsomes 0.5 mg/mL, 2 μM compound; remaining percentage of parent at 60 min
MEASURE_NAME: Human microsome % 60 min (%)

1. COc1cccc(-c2cc(COC(C)(C)C(=O)O)nn2Cc2ccccc2Cl)c1 [Example 14] :: 82
2. COc1cccc(-c2c(C)c(COC(C)(C)C(=O)O)nn2Cc2ccccc2Cl)c1 [Example 54] :: 59

a. COc1ccc(-c2cc(COC(C)(C)C(=O)O)nn2Cc2ccccc2Cl)s1 [Example 64]
b. COc1cccc(-c2cc(COC(C)(C)C(=O)O)nn2Cc2ccccc2N(C)C)c1 [Example 38]
Of a and b , which shows the smaller Human microsome % 60 min value? Give the label under which the chosen entry appears.
b

----------
Target: UniProtKB O15427
Experiment: MCT4-mediated lactate transport in MDA-MB-231 breast cancer cells
Assay type: cell-based
Settings: MDA-MB-231 cells, native MCT4; 50 mM L-lactate
MEASURE_NAME: IC50 (nM)

Solved cases below.
1. COc1cccc(-c2cc(COC(C)(C)C(=O)O)nn2Cc2ccccc2N(C)C)c1 :: 48
2. CC(C)(OCc1cc(-c2cccc(NS(C)(=O)=O)c2)n(Cc2ccccc2Cl)n1)C(=O)O :: 34000

P. CC(C)(OCc1cc(-c2cccc(OCC3CCC3)c2)n(Cc2ccccc2Cl)n1)C(=O)O
Q. CC(C)(OCc1cc(-c2cccc(OC3CC3)c2)n(Cc2ccccc2Cl)n1)C(=O)O
R. COc1cccc(-c2cc(COC(C)(C)C(=O)O)nn2Cc2ccccc2C)c1
S. CC(C)(OCc1cc(-c2cccc(OCC3CCOCC3)c2)n(Cc2ccccc2Cl)n1)C(=O)O
Arrange the 4 entries by IC50 so the values rise. As an answer, provide the labels arranged in the order called for.
P, Q, S, R

----------
Molecular target: MCT1 (Homo sapiens (Human), UniProt P53985)
Sequence (P53985 whole entry): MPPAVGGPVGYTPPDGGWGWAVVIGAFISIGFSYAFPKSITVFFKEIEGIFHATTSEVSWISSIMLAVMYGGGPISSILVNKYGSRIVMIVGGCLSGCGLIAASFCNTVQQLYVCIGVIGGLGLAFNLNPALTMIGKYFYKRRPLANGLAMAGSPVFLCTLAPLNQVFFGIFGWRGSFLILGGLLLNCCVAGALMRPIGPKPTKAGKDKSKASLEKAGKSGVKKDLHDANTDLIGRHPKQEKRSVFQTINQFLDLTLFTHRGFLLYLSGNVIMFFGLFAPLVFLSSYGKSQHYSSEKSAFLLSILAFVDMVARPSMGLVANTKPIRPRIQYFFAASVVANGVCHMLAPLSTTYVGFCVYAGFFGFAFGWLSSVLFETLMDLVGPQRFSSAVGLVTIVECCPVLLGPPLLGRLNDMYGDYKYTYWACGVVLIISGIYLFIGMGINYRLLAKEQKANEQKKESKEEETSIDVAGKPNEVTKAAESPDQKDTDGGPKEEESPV
Sequence (P35613 140-385 partner): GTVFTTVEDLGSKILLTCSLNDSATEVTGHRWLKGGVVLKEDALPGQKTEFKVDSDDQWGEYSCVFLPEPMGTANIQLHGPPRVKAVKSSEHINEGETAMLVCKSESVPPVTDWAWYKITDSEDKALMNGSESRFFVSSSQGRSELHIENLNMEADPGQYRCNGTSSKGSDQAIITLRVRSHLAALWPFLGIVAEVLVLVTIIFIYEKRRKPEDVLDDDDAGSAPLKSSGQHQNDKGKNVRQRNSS
Test: MCT1-mediated lactate transport in BT20 breast cancer cells
Assay type: cell-based
Conditions: native MCT1, 10 mM L-lactate, Table 2
MEASURE_NAME: IC50

Below, each entry is followed by its recorded IC50 result.
1) COc1cccc(-c2cc(COC(C)(C)C(=O)O)nn2Cc2ccccc2Cl)c1 [Example 14] :: > 100000 nM
2) CC(C)(OCc1cc(-c2cccc(F)c2)n(Cc2ccccc2Cl)n1)C(=O)O [Example 12] :: 58000 nM

Attention now turns to another entry.
Query: IC50; subject: CC(C)(OCc1cc(C2CCCCC2)n(Cc2ccccc2Cl)n1)C(=O)O [Example 15]
> 33000 nM

----------
Molecular target: MCT1 (Homo sapiens (Human))
Experiment: MCT1-mediated lactate transport in BT20 breast cancer cells
Type: cell-based
Details: native MCT1, 10 mM L-lactate, Table 3
MEASURE_NAME: IC50 (nM)

Take a look at these entries with their results.
1) COc1cccc(-c2cc(COC(C)(C)C(=O)O)nn2Cc2ccccc2OC)c1 [Example 36] :: 50000
2) CC(C)(OCc1cc(-c2cccc(NS(C)(=O)=O)c2)n(Cc2ccccc2Cl)n1)C(=O)O [Example 71] :: 64000
3) CC(C)c1cccc(-c2cc(COC(C)(C)C(=O)O)nn2Cc2ccccc2Cl)c1 [Example 51] :: 6000
4) COC(=O)C(C)(C)OCc1cc(-c2cccc(OC)c2)n(Cc2ccccc2Cl)n1 [Example 82] :: 16000
5) COc1ccc(Cn2nc(COC(C)(C)C(=O)O)cc2-c2cccc(OCC(C)C)c2)cc1 [Example 63] :: 17000
6) CC(C)(OCc1cc(-c2cccc(O)c2)n(Cc2ccccc2Cl)n1)C(=O)O [Example 79] :: 15000

I. COc1csc(-c2cc(COC(C)(C)C(=O)O)nn2Cc2ccccc2Cl)c1 [Example 65]
II. CC(C)COc1cccc(-c2cc(COC(C)(C)C(=O)O)nn2Cc2ccccc2)c1 [Example 60]
III. CC(C)(OCc1cc(-c2cccc(OC3CCC3)c2)n(Cc2ccccc2Cl)n1)C(=O)O [Example 37]
# sort list by recorded IC50, greatest to least # output: labels, in the requested order
II, I, III

----------
Molecular target: MCT4 (Homo sapiens (Human))
Experiment: Lactate transport in MCT4-expressing MDA-MB-453 breast cancer cells (BCECF)
Assay type: cell-based
Conditions: MDA-MB-453 cells stably expressing MCT4; 50 mM L-lactate
Procedure: Assay 1: Lactate Transport in MCT4-Expressing MDA-MB-453 Breast Cancer Cells. […] The following is an exemplary procedure for assaying MCT4 activity of the compounds of Formula (I). Preparing BCECF-Loaded Cells: […] […] Fluorescence measurements are performed on a PerkinElmer LS55 fluorescence spectrometer with dual excitation wavelengths achieved using a filter wheel (FL Winlab program: Fast Filter; […] Emission 535). […]
MEASURE_NAME: IC50 (nM)

A. O=C(O)C1(OCc2cc(-c3ccc(Cl)cc3)n(Cc3ccccc3Cl)n2)CC1
B. CC(C)(OCc1cc(C2CCCC2)n(Cc2ccccc2Cl)n1)C(=O)O
C. CC(C)(OCc1cc(-c2cccc(Cl)c2)n(Cc2ccccc2Cl)n1)C(=O)O
Task field, ranking: reported IC50, descending order. In your reply, arrange the labels in the requested order.
B, A, C
(B: 1000 nM, A: 440 nM, C: 21 nM)

P. CC(C)(OCc1cc(C2CCCCC2)n(Cc2ccccc2Cl)n1)C(=O)O
Q. CC(C)(OCc1cc(-c2cccc(C(F)(F)F)c2)n(Cc2ccccc2Cl)n1)C(=O)O
Hello, I am sorting some records. Could you say if P or Q has the smaller IC50 value? Respond using the label that marks the chosen record.
Q
